assay-system: Human mTOR (FLAG-TOR) (Homo sapiens)
measurement-protocol: mTOR kinase assay (DELFIA format, purified enzyme)
Format: biochemical
test-conditions: read-out: IC50 mTOR
reported-metric: IC50

molecule: O=C(Nc1ccncc1)Nc1ccc(-c2nc(Cl)nc(N3CC4CCC(C3)O4)n2)cc1
IC50: 7 nM

Each molecule below has a reported value. Please supply its IC50.
1. O=C(Nc1ccncc1)Nc1ccc(-c2nc(N3CCN(Cc4cccnc4)CC3)nc(N3CC4CCC(C3)O4)n2)cc1
2. O=C(Nc1ccc(-c2nc(N3CCOCC3)nc(N3CC4CCC3CO4)n2)cc1)Nc1cc[nH]n1 (centres unmarked)

Response:
1: 29 nM; 2: 67 nM

Take each entry in turn and give its IC50.
1. N#Cc1ccc(NC(=O)Nc2ccc(-c3nc(N4CCOCC4)nc(N4CCC5(CC4)OCCO5)n3)cc2)cc1
2. O=C(Nc1ccc(C(=O)NC2CN3CCC2CC3)cc1)Nc1ccc(-c2nc(N3CCOCC3)nc(N3CCOCC3)n2)cc1 (centres unmarked)

Response:
["24.5 nM", "0.77 nM"]

Hello, I would appreciate it if you could give IC50 for each entry below.
1. CN(C)CCN(C)C(=O)c1ccc(NC(=O)Nc2ccc(-c3nc(N4CCCC4)nc(N4CCOCC4)n3)cc2)cc1
2. NCCNc1ccc(NC(=O)Nc2ccc(-c3nc(N4C5CCC4COC5)nc(N4C5CCC4COC5)n3)cc2)cc1
3. CC(C)(C)OC(=O)N1CC(CNc2nc(-c3ccc(NC(=O)Nc4ccncc4)cc3)nc(N3CCOCC3)n2)C1

Response:
10 nM
1.1 nM
15 nM

---

assay-system: PI3K-γ (Homo sapiens, UniProt P48736)
Sequence (P48736 whole entry, species assumed): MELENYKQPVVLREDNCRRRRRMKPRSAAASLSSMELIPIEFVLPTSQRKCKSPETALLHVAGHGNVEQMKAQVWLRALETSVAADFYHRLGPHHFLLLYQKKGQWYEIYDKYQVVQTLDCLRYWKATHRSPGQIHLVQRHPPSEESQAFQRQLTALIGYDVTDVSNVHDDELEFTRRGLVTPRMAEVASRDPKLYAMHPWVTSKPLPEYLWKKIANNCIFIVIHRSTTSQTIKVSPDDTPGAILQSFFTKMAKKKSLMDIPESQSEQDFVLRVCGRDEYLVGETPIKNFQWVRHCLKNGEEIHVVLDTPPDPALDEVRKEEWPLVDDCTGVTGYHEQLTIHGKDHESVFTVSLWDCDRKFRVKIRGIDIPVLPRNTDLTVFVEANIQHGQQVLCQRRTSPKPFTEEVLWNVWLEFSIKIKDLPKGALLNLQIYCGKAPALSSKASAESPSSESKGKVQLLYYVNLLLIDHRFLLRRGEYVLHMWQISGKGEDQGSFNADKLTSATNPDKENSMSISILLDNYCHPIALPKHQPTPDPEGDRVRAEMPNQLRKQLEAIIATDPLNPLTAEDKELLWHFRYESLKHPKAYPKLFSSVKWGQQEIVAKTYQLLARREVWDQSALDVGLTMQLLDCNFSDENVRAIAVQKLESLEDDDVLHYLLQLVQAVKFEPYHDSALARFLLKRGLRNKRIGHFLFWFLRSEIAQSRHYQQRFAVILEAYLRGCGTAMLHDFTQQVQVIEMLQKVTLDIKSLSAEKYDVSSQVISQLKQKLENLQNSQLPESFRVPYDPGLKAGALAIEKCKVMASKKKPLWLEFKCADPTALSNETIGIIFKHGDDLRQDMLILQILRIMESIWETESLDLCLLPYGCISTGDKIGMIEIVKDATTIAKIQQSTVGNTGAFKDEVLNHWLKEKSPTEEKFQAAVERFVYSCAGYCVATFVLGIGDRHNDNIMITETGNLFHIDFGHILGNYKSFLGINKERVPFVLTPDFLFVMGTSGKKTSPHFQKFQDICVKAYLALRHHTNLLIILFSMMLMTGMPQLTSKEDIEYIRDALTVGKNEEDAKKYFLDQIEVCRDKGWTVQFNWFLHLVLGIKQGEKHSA
measurement-protocol: PI3K-gamma fluorescence polarization assay
test-conditions: read-out: IC50 PI3Kγ
reported-metric: pIC50
Give bare numbers, as −log10 of the molar value.

chem-smiles: CNC(=O)Nc1ccc(-c2nc(OC(COC)COC)nc(N3CC4CCC(C3)O4)n2)cc1
pIC50: 5.39

chem-smiles: O=C(CN1CCCC1)Nc1ccc(NC(=O)Nc2ccc(-c3nc(N4CC5CCC(C4)O5)nc(N4CC5CCC(C4)O5)n3)cc2)cc1
pIC50: 6.30

chem-smiles: CCc1nc(-c2ccc(NC(=O)Nc3ccc(C(=O)N4CCNC(C)(C)C4)cc3)cc2)nc(N2CCOCC2)n1
pIC50: 7.62

chem-smiles: O=C(Nc1ccncc1)Nc1ccc(-c2nc(C3=CCOCC3)nc(N3CCOCC3)n2)cc1
pIC50: 7.42

Lab note: each compound below needs its pIC50 filled in.
1. O=C(Nc1ccncc1)Nc1ccc(-c2nc(N3C4CCC3COC4)nc(N3[C@H](CO)CC[C@@H]3CO)n2)cc1
2. C[C@H]1COCCN1c1nc(-c2ccc(NC(=O)Nc3ccc(C(=O)N4CCC(N(C)C)CC4)cc3)cc2)nc(N2CCOC[C@@H]2C)n1
3. C[C@@H]1COCCN1c1nc(-c2ccc(NC(=O)Nc3ccc(C(=O)O)cc3)cc2)nc(N2CCOC[C@@H]2C)n1

Response:
1: 5.07; 2: 7.23; 3: 6.68

---

System: human prostate PC3-mm2 tumor cell line
measurement-protocol: In vitro cell culture growth assay (MTS), PC3-mm2
Assay type: cell-based
test-conditions: Homo sapiens, PC3MM2, 72 h, MTS cell growth assay, three days after drug treatment; read-out: IC50 PC3-mm2
Could you mark each record yes if its IC50 falls strictly under 80 nM, and no if it equals or exceeds it?

chem-smiles: CC(C)(C)OC(=O)N1CC(Nc2nc(-c3ccc(NC(=O)Nc4ccccc4)cc3)nc(N3CCOCC3)n2)C1
group: no
//
chem-smiles: Cc1ccc(-c2nc(-c3ccc(NC(=O)Nc4ccc(C(=O)N5CCN(C)CC5)cc4)cc3)nc(N3CCOCC3)n2)cc1
group: no
//
chem-smiles: CC(=O)c1nc(-c2ccc(NC(=O)Nc3ccncc3)cc2)nc(N2CCOCC2)n1
group: no
//
chem-smiles: Cc1ccc(NC(=O)Nc2ccc(-c3nc(N4CCOCC4)nc(N4CCOCC4)n3)cc2)cc1
group: yes
//
chem-smiles: O=C(Nc1ccc(-c2nc(N3CCOCC3)nc(N3C4CCC3COC4)n2)cc1)Nc1ccnc(-c2cccnc2)c1
group: yes

Now turn to the next compound.
Prompt: # strict comparison: is reported IC50 < 80 nM? input = CC(C)c1nc(-c2ccc(NC(=O)Nc3ccc(C(=O)Nc4cccnc4)cc3)cc2)nc(N2CCOCC2)n1
Response: no

---

Give measured IC50 for each item. Keep answers brief.
assay-system: Human mTOR (FLAG-TOR) (Homo sapiens, UniProt P42345)
Sequence (P42345 1360-2549 limits assumed): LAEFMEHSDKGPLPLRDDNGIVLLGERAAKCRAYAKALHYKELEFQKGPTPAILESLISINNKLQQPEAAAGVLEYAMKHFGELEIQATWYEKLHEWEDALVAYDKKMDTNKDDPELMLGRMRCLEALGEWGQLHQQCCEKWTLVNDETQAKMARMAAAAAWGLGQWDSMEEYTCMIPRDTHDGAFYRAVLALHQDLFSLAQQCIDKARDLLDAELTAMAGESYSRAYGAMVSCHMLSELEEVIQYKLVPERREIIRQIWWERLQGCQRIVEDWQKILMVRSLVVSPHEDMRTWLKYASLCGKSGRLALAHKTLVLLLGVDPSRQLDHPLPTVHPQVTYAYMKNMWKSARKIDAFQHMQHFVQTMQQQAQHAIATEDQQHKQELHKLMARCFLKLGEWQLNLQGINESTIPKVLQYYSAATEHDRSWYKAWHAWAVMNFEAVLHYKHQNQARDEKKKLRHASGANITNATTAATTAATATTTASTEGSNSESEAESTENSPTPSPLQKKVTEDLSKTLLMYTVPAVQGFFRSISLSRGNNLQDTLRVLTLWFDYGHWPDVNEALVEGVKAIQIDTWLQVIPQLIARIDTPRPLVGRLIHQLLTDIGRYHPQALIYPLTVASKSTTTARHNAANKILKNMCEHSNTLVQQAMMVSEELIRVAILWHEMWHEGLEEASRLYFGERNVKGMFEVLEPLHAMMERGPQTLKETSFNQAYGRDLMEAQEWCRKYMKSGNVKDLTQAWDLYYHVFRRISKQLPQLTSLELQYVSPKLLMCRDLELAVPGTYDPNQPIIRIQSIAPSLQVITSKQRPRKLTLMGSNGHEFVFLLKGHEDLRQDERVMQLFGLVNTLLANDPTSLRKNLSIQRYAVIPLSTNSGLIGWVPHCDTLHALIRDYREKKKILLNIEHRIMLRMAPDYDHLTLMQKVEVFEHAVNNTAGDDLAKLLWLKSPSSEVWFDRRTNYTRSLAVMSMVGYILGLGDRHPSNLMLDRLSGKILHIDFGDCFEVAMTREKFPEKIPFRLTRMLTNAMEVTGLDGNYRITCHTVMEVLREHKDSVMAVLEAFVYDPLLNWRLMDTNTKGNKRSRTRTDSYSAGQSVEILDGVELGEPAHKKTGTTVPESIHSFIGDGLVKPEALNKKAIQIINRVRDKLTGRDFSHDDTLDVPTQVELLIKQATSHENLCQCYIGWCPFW
measurement-protocol: mTOR kinase assay (DELFIA format, purified enzyme)
Assay type: biochemical
test-conditions: read-out: IC50 mTOR
Give bare numbers, in pM.

Record excerpt, results attached:
compound: O=C(Nc1ccc(C(=O)N2CCNCC2)cc1)Nc1ccc(-c2nc(N3CCOCC3)nc(N3C4COCC3COC4)n2)cc1
assay-system: Human mTOR (FLAG-TOR) (Homo sapiens, UniProt P42345)
result: 290
//
compound: O=C(Nc1ccncc1)Nc1ccc(-c2nc(N3CC4CCC(C3)O4)nc(N3[C@H](CO)CC[C@@H]3CO)n2)cc1
assay-system: Human mTOR (FLAG-TOR) (Homo sapiens, UniProt P42345)
result: 405
//
compound: CN(C)CCN(C)C(=O)c1ccc(NC(=O)Nc2ccc(-c3nc(N4CCOCC4)nc(N4CC5CCC4CO5)n3)cc2)cc1 (stereo not shown)
assay-system: Human mTOR (FLAG-TOR) (Homo sapiens, UniProt P42345)
result: 1060

Shifting focus to the compound that follows.
Prompt: Item under review: CC(C)N1CCN(C(=O)c2ccc(NC(=O)Nc3ccc(-c4nc(N5CCOC[C@H]5C)nc(N5CCOC[C@@H]5C)n4)cc3)cc2)CC1 . Reported IC50?
Response: 1000

---

assay-system: PI3K-α (Homo sapiens)
Sequence (P42336 whole entry, species assumed): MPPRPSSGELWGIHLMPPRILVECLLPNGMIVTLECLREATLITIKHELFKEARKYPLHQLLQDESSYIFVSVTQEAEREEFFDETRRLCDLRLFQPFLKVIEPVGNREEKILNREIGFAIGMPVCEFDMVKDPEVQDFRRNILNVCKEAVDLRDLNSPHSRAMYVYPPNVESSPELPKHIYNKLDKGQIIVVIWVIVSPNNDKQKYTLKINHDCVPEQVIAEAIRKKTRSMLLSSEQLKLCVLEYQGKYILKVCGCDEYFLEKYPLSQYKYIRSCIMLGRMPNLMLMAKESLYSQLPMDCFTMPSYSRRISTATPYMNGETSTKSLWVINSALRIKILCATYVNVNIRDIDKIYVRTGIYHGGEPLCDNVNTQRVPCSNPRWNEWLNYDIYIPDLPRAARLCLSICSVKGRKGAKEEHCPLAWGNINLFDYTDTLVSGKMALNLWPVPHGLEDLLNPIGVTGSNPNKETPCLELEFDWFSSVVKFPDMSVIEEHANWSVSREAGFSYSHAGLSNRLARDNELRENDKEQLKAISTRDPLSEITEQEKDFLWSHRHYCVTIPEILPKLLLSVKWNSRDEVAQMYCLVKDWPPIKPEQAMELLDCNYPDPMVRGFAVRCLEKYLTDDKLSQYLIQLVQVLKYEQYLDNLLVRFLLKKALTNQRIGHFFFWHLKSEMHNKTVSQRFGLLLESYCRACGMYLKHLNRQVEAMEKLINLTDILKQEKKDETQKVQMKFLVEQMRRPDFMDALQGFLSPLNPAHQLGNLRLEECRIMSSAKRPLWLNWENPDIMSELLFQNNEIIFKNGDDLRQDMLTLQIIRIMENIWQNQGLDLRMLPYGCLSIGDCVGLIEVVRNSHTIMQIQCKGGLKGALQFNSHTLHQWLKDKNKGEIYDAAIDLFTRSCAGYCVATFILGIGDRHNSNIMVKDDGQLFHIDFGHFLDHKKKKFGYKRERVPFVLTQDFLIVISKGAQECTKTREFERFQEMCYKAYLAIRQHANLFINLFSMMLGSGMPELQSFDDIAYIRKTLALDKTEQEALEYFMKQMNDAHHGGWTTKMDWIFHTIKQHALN
Sequence (P27986 whole entry partner, species assumed): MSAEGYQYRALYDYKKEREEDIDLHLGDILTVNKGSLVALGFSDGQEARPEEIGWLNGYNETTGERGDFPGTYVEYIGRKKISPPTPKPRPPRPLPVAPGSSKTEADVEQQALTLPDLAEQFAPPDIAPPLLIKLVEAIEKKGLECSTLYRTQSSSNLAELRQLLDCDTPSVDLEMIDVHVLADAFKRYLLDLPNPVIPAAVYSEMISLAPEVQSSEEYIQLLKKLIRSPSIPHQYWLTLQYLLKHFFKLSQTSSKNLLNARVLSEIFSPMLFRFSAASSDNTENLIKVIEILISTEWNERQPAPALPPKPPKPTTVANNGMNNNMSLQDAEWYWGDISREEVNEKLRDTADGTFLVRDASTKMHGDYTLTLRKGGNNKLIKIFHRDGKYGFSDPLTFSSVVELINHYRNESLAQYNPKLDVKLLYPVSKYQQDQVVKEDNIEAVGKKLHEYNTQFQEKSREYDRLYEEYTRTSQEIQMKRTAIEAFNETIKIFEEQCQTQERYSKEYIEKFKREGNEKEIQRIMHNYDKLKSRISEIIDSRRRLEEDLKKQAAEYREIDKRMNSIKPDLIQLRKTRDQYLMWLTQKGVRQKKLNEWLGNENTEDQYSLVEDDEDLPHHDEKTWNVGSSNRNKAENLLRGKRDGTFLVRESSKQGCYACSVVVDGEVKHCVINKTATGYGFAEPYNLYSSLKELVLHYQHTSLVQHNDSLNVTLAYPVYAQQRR
measurement-protocol: PI3K-alpha fluorescence polarization assay
test-conditions: read-out: IC50 PI3Kα
Binning rule for recorded IC50: A: < 40 nM; B: ≥ 40 nM and < 100 nM; C: ≥ 100 nM

Examples from the recorded data:
compound: CC(=O)NC1CCN(C(=O)c2ccc(NC(=O)Nc3ccc(-c4nc(N5CCOCC5)nc(N5CCCN(C(C)C)CC5)n4)cc3)cc2)CC1 [Example 661]
group: B
--
compound: O=C(Nc1ccncc1)Nc1ccc(-c2nc(N3C4CCC3COC4)nc(N3[C@H](CO)CC[C@@H]3CO)n2)cc1 [Example 347]
group: C
--
compound: CN(C)CCNC(=O)c1ccc(NC(=O)Nc2ccc(-c3nc(N4CCOCC4)nc(N4CCOCC4)n3)cc2)cc1 [Example 68]
group: A

Prompt: Using the reported IC50, which band applies to O=C(Nc1ccncc1)Nc1ccc(-c2nc(C3=CCOCC3)nc(N3C4CCC3COC4)n2)cc1 [Example 404] ?
Response: B

Prompt: Now try O=C(Nc1ccc(C(=O)N2CCOCC2)cc1)Nc1ccc(-c2nc(N3CCOCC3)nc(N3CCOCC3)n2)cc1 [Example 152] .
Response: A

Prompt: How about this compound: CCCCc1nc(-c2ccc(NC(=O)Nc3ccc(C(=O)N4CCC(N(C)C)CC4)cc3)cc2)nc(N2CCOCC2)n1 [Example 241]
Response: A

Prompt: Now the same for CC(C)c1nc(-c2ccc(NC(=O)Nc3ccc(C(=O)NCCN(C)C)cc3)cc2)nc(N2CCOCC2)n1 [Example 305]
Response: A

Prompt: Likewise for CN1CCN(c2ccc(NC(=O)Nc3ccc(-c4nc(-c5ccc(NC(=O)Nc6ccncc6)cc5)nc(N5CC6CCC(C5)O6)n4)cc3)cc2)CC1 [Example 148] ?
Response: C

Prompt: Same question, OCc1cccc(-c2nc(N3CCOCC3)nc(N3C4CCC3COC4)n2)c1 [Example 682] this time
Response: B

Prompt: Next record, please: COC(=O)c1ccc(NC(=O)Nc2ccc(-c3nc(N4CCC4)nc(N4CCOCC4)n3)cc2)cc1 [Example 141]
Response: C

Prompt: # iterate: Cc1ccc(-c2nc(-c3ccc(NC(=O)Nc4ccncc4)cc3)nc(N3CCOCC3)n2)cc1 [Example 340]
Response: B

Prompt: For O=C(Nc1ccc(-c2nc(N3C[C@@H]4C[C@H]3CO4)nc(N3C[C@@H]4C[C@H]3CO4)n2)cc1)Nc1ccc(N2CCNCC2)cc1 [Example 313] then?
Response: C

Prompt: Now consider CCc1nc(-c2ccc(NC(=O)Nc3cccc(C(=O)OC)c3)cc2)nc(N2CCOCC2)n1 [Example 581] .
Response: C

---

assay-system: Human mTOR (FLAG-TOR) (Homo sapiens, UniProt P42345)
measurement-protocol: mTOR kinase assay (DELFIA format, purified enzyme)
Type: biochemical
test-conditions: read-out: IC50 mTOR
pIC50: −log10 of the molar value.
Rule: pIC50 under 8 gives no (0), otherwise yes (1).

Prompt: State whether the measured pIC50 reaches 8, counting equality as reaching it, for CC(C)c1nc(-c2ccc(NC(=O)Nc3ccc(C(=O)N4CCC(N(C)C)CC4)cc3)cc2)nc(N2CCOCC2)n1
Response: yes (1)

Prompt: Same again, this time with CC(C)N1CCN(C(=O)c2ccc(NC(=O)Nc3ccc(-c4nc(O[C@H]5CCOC5)nc(N5CCOCC5)n4)cc3)cc2)CC1
Response: yes (1)

Prompt: Same again, this time with CC(C)c1nc(-c2ccc(NC(=O)Nc3ccc(C(=O)NC4CN(C)C4)cc3)cc2)nc(N2CCOCC2)n1
Response: yes (1)

Prompt: Lookup C[C@H]1COCCN1c1nc(-c2ccc(NC(=O)NC3CCN(C)CC3)cc2)nc(N2CCOCC2)n1
Response: no (0)
